# Assayed system: T1, Rhesus SLC34A2 (Rhesus, UniProt F7HDA3 1-690)
# T1 construct: whole, on cells
# T1 sequence: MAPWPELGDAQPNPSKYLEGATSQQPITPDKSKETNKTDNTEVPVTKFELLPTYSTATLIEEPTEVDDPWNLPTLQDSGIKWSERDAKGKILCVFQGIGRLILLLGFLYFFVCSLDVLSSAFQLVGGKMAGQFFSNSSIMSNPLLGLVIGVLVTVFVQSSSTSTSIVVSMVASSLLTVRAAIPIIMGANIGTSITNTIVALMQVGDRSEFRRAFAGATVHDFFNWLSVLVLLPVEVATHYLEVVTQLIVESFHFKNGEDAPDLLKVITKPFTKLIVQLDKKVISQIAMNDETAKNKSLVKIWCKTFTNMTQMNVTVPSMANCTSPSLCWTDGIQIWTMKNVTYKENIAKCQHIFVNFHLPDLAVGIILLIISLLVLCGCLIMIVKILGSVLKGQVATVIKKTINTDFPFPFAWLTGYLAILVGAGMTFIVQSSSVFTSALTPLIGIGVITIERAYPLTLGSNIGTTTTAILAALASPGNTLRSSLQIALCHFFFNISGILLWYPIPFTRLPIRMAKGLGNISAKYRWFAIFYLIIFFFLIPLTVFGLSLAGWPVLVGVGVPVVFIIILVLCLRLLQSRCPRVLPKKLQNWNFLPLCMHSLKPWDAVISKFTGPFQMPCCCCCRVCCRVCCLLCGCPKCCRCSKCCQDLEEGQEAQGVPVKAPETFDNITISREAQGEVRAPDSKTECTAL
# Test summary: FACS, HEK293/Rhesus SLC34A2 cells
Decide using EC50 alone. Strictly below 2 nM: true. Equal to or above 2 nM: false.

Binder	Answer label
xi91C9F1 hIgG1 (antibody, V domains shown, chimeric, hIgG1) VH: EVQLQQSGPELVKPGTSVKISCKTSGFFFTEYIIHWVKQSHGRSLEWIGGIIPNNGVTNYKQNFRGKAALTADKSSNTAYMELRSLTSEDSAVYYCARWRNGYYSAMDSWGQGTSVTVSS VL: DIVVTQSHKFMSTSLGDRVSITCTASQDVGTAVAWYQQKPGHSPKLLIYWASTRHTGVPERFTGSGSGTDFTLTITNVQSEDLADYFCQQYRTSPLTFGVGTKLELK	true
xi94E9B12 hIgG1 (antibody, V domains shown, chimeric, hIgG1) VH: QVQLQQPGAELVKPGASVKMSCKASGYTFTSYNMQWVKQTYGQGLEWIGAISPGSGETSYNQNFKVKATLTADKISSTAYMQLSSLTSEDSAVYYCARAARAEGWFAYWGQGTLVTVSA VL: DIVMTQSHKFMSTSVGDRVSITCKASQDVGHAVVWYQQKPGQFPKLLIYWASTRHAGVPDRFTGSGSGTDFTLTISNVQSEDLADYFCQQFRSIPLTFGSGTKLEIK	false
xi16E5D10 hIgG1 (antibody, V domains shown, chimeric, hIgG1) VH: QVQLQQPGAELVKPGASVMMSCKASGYTFSNHNLHWLKKTPGQGLDWIGAIYPGNGDTSYNQKFKGRATLTVDKSSNTAYMQFSSLTSEDSAVFYCARGKYGNGAMDYWGQGTAVTVSS VL: DIVMTQSHKFMSTSVGDRVSITCRASQDVGTAVVWYQQKLGQSPKLLFDWASSRHTGVPDRFTGSGSGTDFTLTITDVQSEDLADYFCQQYSRQPLTFGAGTKLELK	false
xi87H12B7 hIgG1 (antibody, V domains shown, chimeric, hIgG1) VH: QVQLQQPGAEVVRPGASVKMSCKASGYTFTSYIVHWVKQPPGQGLEWIGAIYPGNGDTSYIQKFKGRATLTADKSSSTVYMQLSSLTSEDSAVYYCARGHYYGSAAWFGFWGQGTLVTVSA VL: DILLTQSPAILSVSPGERVSFSCRASQNIGTSIHWYQQRTNDSPRLLMRYASESVSGIPSRFSGSGSGTDFTLSINSVESEDIADYYCQQSNTWPLTFGAGTKLELK	false
xi18G1H4 hIgG1 (antibody, V domains shown, chimeric, hIgG1) VH: QVQLQQPGAELVKPGASVRMSCKASAYTFTTYNLHWVKQTPGQGLEWIGAISPGNGVTSYNQKFRGKATLTADKSSSTAYMQLSSLTSEDSAVYYCARGYGYSVGAMDYWGQGTSVTVSS VL: DIQMTQTTSSLSASLGDRVNISCSASQGIGNFLNWYQQKPDGTVKLLIYYTSSLHSGVPPRFSGSGSGTDYSLTISNLEPEDIATYYCQQYHKLPLTFGAGTKLELK	false

Switching to the query record.
// query Here's an entry: xi28G3C6B9 hIgG1 (antibody, V domains shown, chimeric, hIgG1) VH: QVQLQQPGAEVVKPGASVKMSCKASGYTFTSYIIHWVKQAPGQGLEWIGAIYPGNGDTSYSQRFKGKAKLTADKSSSTAYMQLNSLTSEDSVVYYCARGNNYGSPAWFGYWGQGTLVTVSA VL: DIVLTQSPVTLSVTPGDRVSLSCRASQSIGNFLYWYQQKSHESPRLLIKYASQSMSGIPSRFSGSGSGTDFTLSISRVETEDFGMYFCQQSNSWPVTFGAGTKLELK . Is its EC50 below 2 nM?
// result false
